This collection of values is drawn from ChEMBL document CHEMBL4513216.

# assay: Toxicity liver stage against HepG2, at 10uM
# Assay type: cell-based
# Set-up: test concentration 10 uM, cell line HepG2-A16-CD81EGFP
# conditionInfo: human, HepG2-A16-CD81EGFP cells; read-out: INHIBITION
Recorded cytotoxicity at 10 µM, one value per entry.
propertyLabel: cytotoxicity at 10 µM (%)

>>> readoutvalue("O=C(NCC[S+]([O-])Cc1ccccc1)c1ccc2[nH]c(=O)[nH]c2c1 (stereo unspecified)")
6.11
>>> readoutvalue("O=C(CN1CCCS1(=O)=O)Nc1ccc(OC2CCCC2)cc1")
-7.31
>>> readoutvalue("Nc1nnc(CCNC(=O)c2cccc(C3CCCNC3)c2)s1 (stereo unspecified)")
2.9
>>> readoutvalue("Cc1nc(-c2ccsc2)ccc1C(=O)N1CCn2c(C)nnc2C1")
-7.83
>>> readoutvalue("COc1cc(C(=O)NC(C)C)nc2c(C)cc(F)cc12")
2.43
>>> readoutvalue("CSCC(C)(O)CNC(=O)c1ccc(Br)cc1F (stereo unspecified)")
0.537

====

# assay: Toxicity liver stage against HepG2, at 10uM
# Format: cell-based
# Parameters: test concentration 10 uM, cell line HepG2-A16-CD81EGFP
# conditionInfo: human, HepG2-A16-CD81EGFP cells; read-out: INHIBITION
Could you label it t if measured cytotoxicity at 10 µM is -10% or higher, and f otherwise?

>>> label("CC(C)c1csc(C2CCCN(C(=O)c3ccc(=O)n(C)n3)C2)n1 (stereo unspecified)")
"t"
>>> label("CCN(C(=O)COC)C(c1cccnc1)c1ccc2c(c1)CCO2 (stereo unspecified)")
"f"
>>> label("CN(Cc1nc2ccccc2c(=O)[nH]1)C1CC(=O)N(C2CC2)C1=O (stereo unspecified)")
"t"
>>> label("CNS(=O)(=O)Cc1ccc(CNC(=O)c2ccccn2)cc1")
"t"
>>> label("O=C(CS(=O)(=O)Cc1ccccc1)NCc1ccccc1F")
"f"
>>> label("Cc1cc(C)n(CC2CCCN2Cc2nc(N)c3ccccc3n2)n1 (stereo unspecified)")
"f"
>>> label("CC(CCCC(C)(C)O)Nc1ccc(-c2nccn2C)nn1 (stereo unspecified)")
"t"
>>> label("Cc1ccccc1C(=O)N1CCCn2cnc(CN3CCCC3=O)c2C1")
"t"
>>> label("Cc1nnc2n1CCN(CCS(=O)(=O)c1ccccc1)C2")
"t"
>>> label("Cc1ccc(CN2CCn3cc(CN(C)Cc4ccco4)nc3C2)o1")
"t"
>>> label("Cc1csc(CCCNC(C)CC(=O)Nc2ccc(F)cc2)n1 (stereo unspecified)")
"t"

====

# assay: Toxicity liver stage against HepG2, at 10uM
# Assay type: cell-based
# Design: test concentration 10 uM, cell line HepG2-A16-CD81EGFP
# conditionInfo: human, HepG2-A16-CD81EGFP cells; read-out: INHIBITION
propertyLabel: cytotoxicity at 10 µM (%)

>>> readoutvalue("Cc1cc(CN(C)C(=O)c2cc(COc3ccccc3)[nH]n2)n[nH]1")
5.76
>>> readoutvalue("Cc1ccc(-c2nc(C(=O)N3CCCC(C(N)=O)C3)cs2)c(C)c1 (stereo unspecified)")
-2.9
>>> readoutvalue("CNC(=O)C(C)(C)CNC(=O)Nc1ccc(C)cn1")
0.973
>>> readoutvalue("O=C(NCCn1cnc(C2CCCC2)cc1=O)NCc1cccs1")
-7.05
>>> readoutvalue("O=C(Nc1cccnc1)[C@@H]1COC[C@H]2CN(C3CCCC3)C[C@H]21")
5.74
>>> readoutvalue("CCC(C)N(C)CCNC(=O)NCc1cccc(-n2cncn2)c1 (stereo unspecified)")
-8.1
>>> readoutvalue("Cc1nc(C)n(CC2CN(CC(=O)Nc3ccncc3)CCO2)n1 (stereo unspecified)")
-0.654
>>> readoutvalue("CCc1ccccc1NC(=O)C1CN(C(C)=O)C1")
8.49
>>> readoutvalue("CC(NC(=O)CCc1ccsc1)c1ccc2c(c1)NC(=O)CO2 (stereo unspecified)")
-6.16
>>> readoutvalue("c1ccc(-n2cc(CN3CCCC(Cn4cncn4)C3)nn2)cc1 (stereo unspecified)")
1.52
>>> readoutvalue("c1cc(-c2nnn3c2COC(CNCC2CCOCC2)C3)ccn1 (stereo unspecified)")
-23.8

====

# assay: Toxicity liver stage against HepG2, at 10uM
# Assay type: cell-based
# Parameters: test concentration 10 uM, cell line HepG2-A16-CD81EGFP
# conditionInfo: human, HepG2-A16-CD81EGFP cells; read-out: INHIBITION
propertyLabel: cytotoxicity at 10 µM

>>> readoutvalue("O=C(c1ccc(F)c(F)c1)N1CCC(Cn2cc(CO)nn2)CC1")
"5.95%"
>>> readoutvalue("CCOCC1c2c(ncn2C)CCN1C(=O)c1ccoc1 (stereo unspecified)")
"-103%"
>>> readoutvalue("COc1ccc(Cn2c(CCc3c(C)n[nH]c3C)n[nH]c2=O)cc1")
"-144%"
>>> readoutvalue("COCCNc1ccc(CC2CCCN(c3ncccn3)C2)nn1 (stereo unspecified)")
"3.81%"
>>> readoutvalue("Cc1nc(C(=O)N2CCCCC2c2ccc(CN(C)C)cc2)c(C)o1 (stereo unspecified)")
"-2.32%"
>>> readoutvalue("COc1cc(CNCC(O)c2ccccc2)cc2c1OCO2 (stereo unspecified)")
"-13%"
>>> readoutvalue("COc1cc(S(=O)(=O)N2C[C@@H](C)[C@@](C)(O)C2)c(C)cc1C")
"-2.06%"
>>> readoutvalue("O=C(CCc1cccs1)Nc1ccnn1C1CCS(=O)(=O)C1 (stereo unspecified)")
"-19.8%"
>>> readoutvalue("Cc1csc(C(C)(C)NCC(=O)N2CCCC(C(N)=O)C2)n1 (stereo unspecified)")
"5.73%"
>>> readoutvalue("CCn1cc(CN2C[C@@H]3CC[C@H]2CN(C(=O)c2ccncc2)C3)cn1")
"10.2%"
>>> readoutvalue("Cn1nc(CN2CCCCC2)c2c1CN(C(=O)Nc1cccc(F)c1)C2")
"5.68%"

====

Recorded cytotoxicity at 10 µM, one value per entry.
# assay: Toxicity liver stage against HepG2, at 10uM
# Format: cell-based
# Parameters: test concentration 10 uM, cell line HepG2-A16-CD81EGFP
# conditionInfo: human, HepG2-A16-CD81EGFP cells; read-out: INHIBITION
propertyLabel: cytotoxicity at 10 µM (%)

>>> readoutvalue("CN(Cc1ccc(N(C)C)cc1)C(=O)NCc1nnc2n1CCC2")
-21
>>> readoutvalue("NC(=O)C1CCN(C(=O)CCCc2nnc(-c3ccccc3)o2)C1 (stereo unspecified)")
-19.8
>>> readoutvalue("COC[C@H]1CC[C@H]2[C@H](CCN2S(=O)(=O)Cc2ccccc2)O1")
8.25
>>> readoutvalue("Cc1cccnc1CN(C)C(C(=O)O)c1ccc(-c2ccn[nH]2)cc1 (stereo unspecified)")
12.2
>>> readoutvalue("CNc1nc2cn(C3CCCC3)c(=O)c-2c[nH]1")
7.17
>>> readoutvalue("Fc1ccccc1CC1CCN(Cc2ccccn2)CC1")
2.25
>>> readoutvalue("CCc1cc(N(C)CCc2noc(C)n2)nc(N2CCOCC2)n1")
4.12
>>> readoutvalue("CO[C@@H]1c2ccccc2C2(CCN(C(=O)CNC(=O)C(C)C)CC2)[C@H]1O")
-3.26
>>> readoutvalue("O=C(c1cn(CCN2CCCCC2)nn1)N1CCCCO1")
-4.55
>>> readoutvalue("CC(C)N(CCO)C(=O)C1CCC(=O)N(CCc2cccc(F)c2)C1 (stereo unspecified)")
-6.95
>>> readoutvalue("COc1cc(CNc2cc(-c3nncn3C)ccn2)cc(OC)c1OC")
-3.78

====

# assay: Toxicity liver stage against HepG2, at 10uM
# Assay type: cell-based
# Parameters: test concentration 10 uM, cell line HepG2-A16-CD81EGFP
# conditionInfo: human, HepG2-A16-CD81EGFP cells; read-out: INHIBITION
propertyLabel: cytotoxicity at 10 µM (%)

>>> readoutvalue("CCCc1nnc(N[C@H](C)c2ccc(OC)cc2)o1")
-19.9
>>> readoutvalue("O=C(c1cscn1)N1CC[C@@H]2[C@@H]1CCN2C1CCOC1 (stereo partly specified)")
4.19
>>> readoutvalue("O=c1c(CN2CC3CCCN3C[C@@H]2CCO)coc2ccc(Cl)cc12 (stereo partly specified)")
3.19
>>> readoutvalue("Fc1cnc(N2CCCC3(CCN(Cc4ccoc4)C3)C2)nc1 (stereo unspecified)")
-80.6
>>> readoutvalue("N#Cc1cccc(C(=O)N2CCCC(C(=O)CCc3ccccc3)C2)c1 (stereo unspecified)")
0.488
>>> readoutvalue("CCS(=O)(=O)N1CCC(Oc2ccc(C#N)cc2)CC1")
16.8
>>> readoutvalue("Cc1nc(C2CCCN2CCC(=O)N2CCc3ccccc32)no1 (stereo unspecified)")
-1.07
>>> readoutvalue("Cc1nc(S(=O)(=O)CCn2cccn2)n(C2CCCCC2)c1C")
-5.58
>>> readoutvalue("CCNc1ncc(C(=O)NC(CC)c2ccnn2C)cn1 (stereo unspecified)")
-2.4
>>> readoutvalue("O=C(C1=CCCC1)N1CCC[C@]2(C[C@@H](Oc3ncccc3F)CO2)C1")
-15.5
>>> readoutvalue("CC(c1nc(C(C)(C)C)no1)N1CCN(Cc2ccco2)CC1 (stereo unspecified)")
-5.02
